B1: library; numbered along this chain (parent)
chain: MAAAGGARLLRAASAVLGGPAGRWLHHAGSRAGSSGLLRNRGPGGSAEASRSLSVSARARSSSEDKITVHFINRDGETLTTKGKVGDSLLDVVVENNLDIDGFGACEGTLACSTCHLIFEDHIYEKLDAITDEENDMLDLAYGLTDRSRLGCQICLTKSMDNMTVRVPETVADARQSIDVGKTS

Variants of: B1
Assay Info: scaled log2 fold change in cell abundance, elesclomol vs control (0 = silent mean, 1 = nonsense mean) (scaled log2 ratio); higher = higher viability under elesclomol (loss of FDX1 cuproptosis function);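 also: variant abundance is its share of total variant reads in each endpoint sample, from next-generation sequencing of the integrated ORF PCR-amplified out of genomic DNA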
Condition Details: with HEK293T FDX1 KO; elesclomol 40 nM; glucose 10 mM; 11 days
Examples of variants with documented scaled log2 fold change follow.
Test Readout: scaled log2 fold change

• N97Y = -0.135
• L53W = 0.498
• N40L = 0.239
• S50E = 0.116
• P168T = -0.142
• D75V = -0.372
• D146V = -0.76
• V16C = 0.501
• K66M = -0.226
• R147S = -0.596
• E107G = 0.114
• D128R = -0.293
• S46P = 0.866
• N97Q = 0.204
• S35W = -0.259
• A174Y = 0.358
• L37P = 1.09
• S14A = 0.495
• T157V = -0.969
• S177E = -0.019
• A47M = 0.799
• T114E = 1.09
• A13H = -1.05
• G33N = 0.48
• L89H = 0.109
• D75N = 0.364
• I67K = 0.44
• D161F = 0.236
• R166S = -0.368
• C155D = -1.76
• I154G = 1.27
• G143C = 0.0676
• M137E = 0.879
• R149T = 0.998
• L150K = 1.51
• S34N = 0.424
• T145I = -0.228
• E169R = 0.411
• L89F = 0.454
• E134C = 1.13
• G18N = 0.649
• R41Q = 0.698
• A13S = 0.0322
• D87F = -0.393
• Q176F = 0.182
• N96Y = -0.153
• A3Y = 0.561
• K66L = -0.145
• R39E = 0.936
• D161S = -0.0997
• R147L = -0.851
• R74T = -0.108
• V93N = 0.217
• A21W = 0.402
• C112M = 1.24
• D179F = 0.995
• G6L = 0.412
• T109G = 0.43
• A111W = 0.773
• G104W = 0.69
• A172V = -0.531
• V94M = 1.17
• T183K = -0.436
• D87V = -0.704
• K158Q = -0.446
• L127R = 0.151
• D179S = 0.929
• S34C = 0.188
• D101H = -0.455
• G76N = -0.272
• M137G = -0.171
• D139L = -0.608
• R41D = -0.209
